Structures can show the parent of a compound that is named as a salt.

compound | melting point
COc1ccccc1N1CCN(CCC(C(=O)C2CCCCCC2)c2ccccc2)CC1 (centres unmarked) (as salt: hydrochloride) [Example 6, dihydrochloride] | 193 to 194 °C
COc1ccccc1N1CCN(CCC(C(=O)C2CCCCC2)c2ccccc2)CC1.O=C(O)C(=O)O (centres unmarked) [Example 2] | 149 to 151 °C
COc1ccccc1N1CCN(CCC(c2ccccc2)C(O)C2CCCCC2)CC1.O=C(O)C(=O)O (centres unmarked) [Example 8] | 100 to 102 °C
COc1ccccc1N1CCN(CCC(C)(C(=O)c2ccccc2)c2ccccc2)CC1.O=C(O)C(=O)O (centres unmarked) [Example 5] | 192 to 193 °C
COc1ccccc1N1CCN(CCC(C)(C(=O)C2CCCCC2)c2ccccc2)CC1 (centres unmarked) [Example 9] | 192.81 °C
COc1ccccc1N1CCN(CCC(C(=O)C2CCCC2)c2ccccc2)CC1 (centres unmarked) (as salt: hydrochloride) [Example 7, dihydrochloride] | 210 to 212 °C
O=C(C1CCCCC1)C(CCN1CCN(c2ccccn2)CC1)c1ccccc1.O=C(O)C(=O)O (centres unmarked) [Example 3] | 185 to 187 °C
COc1ccccc1N1CCN(CCC(C(=O)c2ccccc2)c2ccccc2)CC1.O=C(O)C(=O)O (centres unmarked) [Example 1] | 161 to 163 °C
